The following compounds are listed with their measured inhibition at 0.1 µM values.
Target: AR protein (Homo sapiens)
Construct: degradation activity of the compounds disclosed in the present disclosure on AR protein in VCaP cells; host or cells: VCaP
Test: Degradation of AR protein in VCaP cells (Western blot)
Assay type: cell-based
Conditions: compound at 100 nM, 8 hours, read-out: Degradation rate of the AR protein in VCaP cells, 100 nM (%)
Report as a plain number; the unit % is understood.

Answered examples (6):
N#Cc1ccc(O[C@H]2CC[C@H](NC(=O)c3ccc(N4CCC5(CC(N6CCC7(CC6)COc6cc8c(cc67)C(=O)N(C6CCC(=O)NC6=O)C8=O)C5)C4)nn3)CC2)cc1Cl (some centres unmarked) [Compound 54]	85
N#Cc1ccc(O[C@H]2CC[C@H](NC(=O)c3ccc(N4CC5(CCC(N6CCC7(CC6)COc6cc8c(cc6C7)C(=O)N(C6CCC(=O)NC6=O)C8=O)CC5)C4)nn3)CC2)cc1Cl (some centres unmarked) [Compound 65]	71
N#Cc1ccc(O[C@H]2CC[C@H](NC(=O)c3ccc(N4CCC5(CCC(N6CCC7(CC6)COc6cc8c(cc6C7)C(=O)N(C6CCC(=O)NC6=O)C8=O)CC5)CC4)nn3)CC2)cc1Cl (some centres unmarked) [Compound 64]	73
N#Cc1ccc(O[C@H]2CC[C@H](NC(=O)c3ccc(N4CCC(N5CCC6(CCc7ccc8c(c7O6)CN(C6CCC(=O)NC6=O)C8=O)CC5)CC4)nn3)CC2)cc1Cl (some centres unmarked) [Compound 171]	62
COC1(CN2CC3(CCc4ccc5c(c4O3)C(=O)N(C3CCC(=O)NC3=O)C5=O)C2)CCN(c2ccc(C(=O)N[C@H]3CC[C@H](Oc4ccc(C#N)c(Cl)c4)CC3)nn2)CC1 (some centres unmarked) [Compound 165]	23
N#Cc1ccc(O[C@H]2CC[C@H](NC(=O)c3ccc(N4CC(N5CCC6(CC5)COc5c6ccc6c5C(=O)N(C5CCC(=O)NC5=O)C6=O)C4)nn3)CC2)cc1Cl (some centres unmarked) [Compound 142]	74

For this compound ( COc1cc(O[C@H]2C(C)(C)[C@H](NC(=O)c3ccc(N4CCC(C)(CN5CCC6(CC5)COc5c6ccc6c5CN(C5CCC(=O)NC5=O)C6=O)CC4)cc3)C2(C)C)ccc1C#N (some centres unmarked) [Compound 221] ), measured inhibition at 0.1 µM is 64

Quick note, inhibition at 0.1 µM for CC1(CN2CCC3(CC2)COc2c3ccc3c2C(=O)N(C2CCC(=O)NC2=O)C3=O)CCN(c2ncc(C(=O)NC3CCC(Oc4ccc(C#N)c(Cl)c4)CC3)cn2)CC1 (centres unmarked) [Compound 245] landed at 43

Entry CC1(CN2CCC3(CCc4cc5c(cc4O3)C(=O)N(C3CCC(=O)NC3=O)C5=O)CC2)CCN(c2ccc(C(=O)N[C@H]3CC[C@H](Oc4ccc(C#N)c(Cl)c4)CC3)nn2)CC1 (some centres unmarked) [Compound 17] ; inhibition at 0.1 µM = 80

inhibition at 0.1 µM in this record for N#Cc1ccc(O[C@H]2CC[C@H](NC(=O)c3ccc(N4CCC(CN5CCC6(CC5)COc5cc7c(cc5O6)CN(C5CCC(=O)NC5=O)C7=O)CC4)nn3)CC2)cc1Cl (some centres unmarked) [Compound 76] : 76

Quick note, inhibition at 0.1 µM for N#Cc1ccc(O[C@H]2CC[C@H](NC(=O)c3ccc(N4CCC(N5CC(N6CCC7(CC6)COc6c7ccc7c6CN(C6CCC(=O)NC6=O)C7=O)C5)CC4)nn3)CC2)cc1Cl (some centres unmarked) [Compound 144] landed at 86

compound COC1(CN2CCC3(CCc4ccc5c(c4O3)CN(C3CCC(=O)NC3=O)C5=O)CC2)CCN(c2ccc(C(=O)N[C@H]3CC[C@H](Oc4ccc(C#N)c(Cl)c4)CC3)nn2)CC1 (some centres unmarked) [Compound 167] , inhibition at 0.1 µM observed: 67

Per the records, this compound ( N#Cc1ccc(O[C@H]2CC[C@H](NC(=O)c3ccc(N4CC(N5CCC6(CCc7cc8c(cc7O6)C(=O)N(C6CCC(=O)NC6=O)C8=O)CC5)C4)nn3)CC2)cc1Cl (some centres unmarked) [Compound 25] ) has inhibition at 0.1 µM equal to 32

Notebook: COC1(CN2CC3(CCc4cc5c(cc4O3)C(=O)N(C3CCC(=O)NC3=O)C5)C2)CCN(c2ccc(C(=O)N[C@H]3CC[C@H](Oc4ccc(C#N)c(Cl)c4)CC3)nn2)CC1 (some centres unmarked) [Compound 9] , inhibition at 0.1 µM read as 82

Data point: N#Cc1ccc(O[C@H]2CC[C@H](NC(=O)c3ccc(N4CCC(CN5CCC6(CC5)COc5c6ccc6c5CN(C5CCC(=O)NC5=O)C6=O)(C5CC5)CC4)nn3)CC2)cc1Cl (some centres unmarked) [Compound 238] ; inhibition at 0.1 µM = 79

Reported inhibition at 0.1 µM of N#Cc1ccc(O[C@H]2CC[C@H](NC(=O)c3ccc(N4CCC(CN5CCC6(CCc7cc8c(cc7O6)C(=O)N(C6CCC(=O)NC6=O)C8)CC5)CC4)nn3)CC2)cc1Cl (some centres unmarked) [Compound 44] : 83

The recorded inhibition at 0.1 µM for N#Cc1ccc(O[C@H]2CC[C@H](NC(=O)c3ccc(N4CC[C@H](CN5CCC6(CC5)COc5c6ccc6c5CN(C5CCC(=O)NC5=O)C6=O)[C@H](F)C4)nn3)CC2)cc1Cl (some centres unmarked) [Compound 226] is 83

Documented inhibition at 0.1 µM of N#Cc1ccc(O[C@H]2CC[C@H](NC(=O)c3ccc(N4CC(N5CC6(CCc7cc8c(cc7O6)C(=O)N(C6CCC(=O)NC6=O)C8=O)C5)C4)nn3)CC2)cc1Cl (some centres unmarked) [Compound 5] : 51

For N#Cc1ccc(O[C@H]2CC[C@H](NC(=O)c3ccc(N4CC[C@H](CN5CCC6(CC5)COc5cc7c(cc56)C(=O)N(C5CCC(=O)NC5=O)C7=O)C4)nn3)CC2)cc1Cl (some centres unmarked) [Compound 58] the compound record lists inhibition at 0.1 µM as 93

Documented inhibition at 0.1 µM of N#Cc1ccc(O[C@H]2CC[C@H](NC(=O)c3ccc(N4CCC5(CC4)CC(N4CCC6(CC4)COc4c(ccc7c4C(=O)N(C4CCC(=O)NC4=O)C7)C6)C5)nn3)CC2)cc1Cl (some centres unmarked) [Compound 188] : 79

###

Biological target: AR protein (Homo sapiens)
Construct: degradation activity of the compounds disclosed in the present disclosure on AR protein in VCaP cells; host or cells: VCaP
Test: Degradation of AR protein in VCaP cells (Western blot)
Type: cell-based
Conditions: compound at 10 nM, 8 hours, read-out: Degradation rate of the AR protein in VCaP cells, 10 nM (%)
quantity: inhibition at 0.01 µM (%)
# unit: % | format: bare number

// below: answered compounds
N#Cc1ccc(O[C@H]2CC[C@H](NC(=O)c3ccc(N4CC(N5CCC6(CC5)COc5cc7c(cc56)C(=O)N(C5CCC(=O)NC5=O)C7=O)C4)nn3)CC2)cc1Cl (some centres unmarked) [Compound 49]	24
COc1cc(O[C@H]2CC[C@H](NC(=O)c3ccc(N4CCC(C)(CN5CCC6(CC5)COc5c6ccc6c5C(=O)N(C5CCC(=O)NC5=O)C6=O)CC4)nn3)CC2)ccc1C#N (some centres unmarked) [Compound 180]	29
N#Cc1ccc(O[C@H]2CC[C@H](NC(=O)c3ccc(N4CCC(F)(CN5CC6(CCc7ccc8c(c7O6)C(=O)N(C6CCC(=O)NC6=O)C8)C5)CC4)nn3)CC2)cc1Cl (some centres unmarked) [Compound 139]	-16

get_value(item= COc1cc(O[C@H]2CC[C@H](NC(=O)c3cnc(N4CCC(CN5CCC6(CC5)COc5c6ccc6c5C(=O)N(C5CCC(=O)NC5=O)C6=O)(OC)CC4)nc3)CC2)ccc1C#N (some centres unmarked) [Compound 220] , readout=inhibition at 0.01 µM) returns 22

response.value for N#Cc1ccc(O[C@H]2CC[C@H](NC(=O)c3ccc(N4CC5(CC(C(=O)N6CCC7(CC6)COc6c7ccc7c6CN(C6CCC(=O)NC6=O)C7=O)C5)C4)nn3)CC2)cc1Cl (some centres unmarked) [Compound 256] (field: inhibition at 0.01 µM) = 48

###

# inhibition at 0.01 µM per entry
Biological target: AR protein (Homo sapiens, UniProt P10275, T878A)
Construct: degradation activity of the compounds disclosed in the present disclosure on AR protein in LNCaP cells; host or cells: LNCaP FGC
Sequence (P10275 1-920 T878A): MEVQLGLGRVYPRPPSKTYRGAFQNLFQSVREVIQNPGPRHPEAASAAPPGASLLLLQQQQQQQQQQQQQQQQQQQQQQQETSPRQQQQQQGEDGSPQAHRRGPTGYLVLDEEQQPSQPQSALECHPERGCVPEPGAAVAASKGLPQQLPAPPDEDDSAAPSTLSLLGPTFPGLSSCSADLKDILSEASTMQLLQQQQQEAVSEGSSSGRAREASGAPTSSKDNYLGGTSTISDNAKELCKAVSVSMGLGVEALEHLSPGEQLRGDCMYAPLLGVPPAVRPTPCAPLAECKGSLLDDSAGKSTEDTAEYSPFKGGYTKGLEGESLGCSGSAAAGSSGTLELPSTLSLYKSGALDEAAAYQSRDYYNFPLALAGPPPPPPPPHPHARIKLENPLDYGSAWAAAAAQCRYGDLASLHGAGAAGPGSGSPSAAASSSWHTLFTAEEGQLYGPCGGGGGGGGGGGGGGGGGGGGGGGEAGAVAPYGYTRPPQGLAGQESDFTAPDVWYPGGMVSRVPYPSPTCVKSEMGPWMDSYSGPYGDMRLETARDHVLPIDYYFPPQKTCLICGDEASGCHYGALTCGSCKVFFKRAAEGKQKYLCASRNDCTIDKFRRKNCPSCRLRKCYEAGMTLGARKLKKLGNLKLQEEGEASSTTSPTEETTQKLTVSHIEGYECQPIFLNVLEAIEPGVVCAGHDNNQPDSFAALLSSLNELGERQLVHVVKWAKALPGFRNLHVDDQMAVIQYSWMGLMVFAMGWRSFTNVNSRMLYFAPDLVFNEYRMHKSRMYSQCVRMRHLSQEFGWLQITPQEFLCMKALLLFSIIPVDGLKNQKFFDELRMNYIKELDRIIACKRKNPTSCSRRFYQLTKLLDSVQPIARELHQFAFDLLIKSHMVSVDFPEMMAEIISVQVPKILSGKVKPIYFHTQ
Test: Degradation of AR protein in LNCaP cells (Western blot)
Type: cell-based
Conditions: LNCaP cells, compound 10 nM, 8 hours, Western blot grayscale, GAPDH internal reference; read-out: Degradation rates of the AR protein in LNCaP cells, 10 nM (%)
Report the figure in % without appending any unit label.

Answered cases to consult:
N#Cc1ccc(O[C@H]2CC[C@H](NC(=O)c3ccc(N4CCC5(CC4)CC(N4CCC6(CCc7cc8c(cc7O6)C(=O)N(C6CCC(=O)NC6=O)C8=O)CC4)C5)nn3)CC2)cc1Cl (some centres unmarked)	52
N#Cc1ccc(O[C@H]2CC[C@H](NC(=O)c3ccc(N4CCC5(CCC(N6CCC7(CC6)COc6cc8c(cc67)C(=O)N(C6CCC(=O)NC6=O)C8=O)CC5)CC4)nn3)CC2)cc1Cl (some centres unmarked)	13
COc1cc(OC2CCC(NC(=O)c3cnc(N4CCC(C)(CN5CCC6(CC5)COc5c6ccc6c5C(=O)N(C5CCC(=O)NC5=O)C6=O)CC4)nc3)CC2)ccc1C#N (centres unmarked)	17
N#Cc1ccc(O[C@H]2CC[C@H](NC(=O)c3ccc(N4CC[C@H](CN5CCC6(CC5)COc5c6ccc6c5CN(C5CCC(=O)NC5=O)C6=O)[C@H](F)C4)nn3)CC2)cc1Cl (some centres unmarked)	52

Below: the item to evaluate.
The molecule listed as CCC1(CN2CCC3(CC2)COc2c3ccc3c2C(=O)N(C2CCC(=O)NC2=O)C3=O)CCN(c2ccc(C(=O)N[C@H]3CC[C@H](Oc4ccc(C#N)c(C(F)(F)F)c4)CC3)nn2)CC1 (some centres unmarked) shows inhibition at 0.01 µM equal to -53

Data provenance is patent US20260234157A1.
